target: canine CD3 on canine T cells (canine PBMC) (canine, UniProt P27597 22-202); assay: cell-based or functional assay
Sequence (P27597 22-202 limits assumed, chain 1 of 3): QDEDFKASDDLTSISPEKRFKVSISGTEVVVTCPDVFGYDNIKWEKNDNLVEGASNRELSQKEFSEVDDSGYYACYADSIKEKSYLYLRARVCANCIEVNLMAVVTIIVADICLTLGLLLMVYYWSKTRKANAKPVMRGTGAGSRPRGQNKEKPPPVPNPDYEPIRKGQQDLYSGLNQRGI
Sequence (chain, as listed by the source limits assumed, chain 2 of 3): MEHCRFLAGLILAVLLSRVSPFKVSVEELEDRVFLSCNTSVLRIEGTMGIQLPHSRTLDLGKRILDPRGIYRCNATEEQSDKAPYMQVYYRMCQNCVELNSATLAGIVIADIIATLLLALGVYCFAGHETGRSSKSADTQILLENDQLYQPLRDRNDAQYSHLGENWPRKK
Sequence (chain, as listed by the source limits assumed, chain 3 of 3): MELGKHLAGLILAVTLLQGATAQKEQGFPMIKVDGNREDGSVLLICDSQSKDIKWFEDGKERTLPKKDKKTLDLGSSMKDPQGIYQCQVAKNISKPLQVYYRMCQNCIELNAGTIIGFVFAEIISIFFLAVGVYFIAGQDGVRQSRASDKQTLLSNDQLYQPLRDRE
Mark YES only when Ki67 Proliferation, Day 6, IS stays strictly below 2. Values equal to the cut-off are NO.

PMX176 (monospecific anti-canine CD3, canine IgG-B effector function deficient Fc) (antibody, V domains shown) VH: EVQLVESGGDLVKPGGSLRLSCVASGFTFSSYHMSWVRQAPGKGLQWVAYINSAGSTTSYTDAVQGRFTISRDNAKNTLYLQMNSLRAEDTAVYYCASEWIFMPWGQGSLVTVSS VL: SYVLTQLPSKNVTLKQPAHITCGGDNIGSKSVHWYQQKLGQAPVLIIYYDSSRPTGIPERFSGANSGNTATLTISGALAEDEADYYCQVWDSSAKARVFGEGTQLTVL: YES
PMX158 (monospecific anti-canine CD3, canine IgG-B effector function deficient Fc) (antibody, V domains shown) VH: ELTLQESGPGLVKPSQTLSLTCVVSGGSVTRSYYWNWIRQRPGRGLEWMGYWTGTTNYNPAFQGRISITADTAKNQCSLQLSSMTTEDTAVYYCAREGGKLLGAFGHWGQGTLVTVSS VL: SYVLTQLPSKNVTLKQPAHITCGGDKIGSKSVHWYQQKLGQAPVLIIYYDSSRLTGIPERFSGANSGNTATLTISGALAEDEADYYCQVWDSSAKASVFGGGTHLTVL: NO
PMX198 (monospecific anti-canine CD3, canine IgG-B effector function deficient Fc) (antibody, V domains shown) VH: EFTLQESGPGLVKPSQTLSLTCIVSGGSVTSSYYWNWIRQRPGRGLEWMGYWTGSTNYNPAFQGRISITPDTAKNQFSLQLSSMTTEDTAVYYCAREGGSSLQAFGNWGQGTLVTVSS VL: SYVLTQLPSKNVTLKQPAHITCGGDNIGRKSVHWYQQKLGQAPILIIYYDSSRPTGIPERFSGANSGNTATLTISGALAEDEADYYCQVWDSSAKASVFGGGTHLTVL: YES
PMX184 (monospecific anti-canine CD3, canine IgG-B effector function deficient Fc) (antibody, V domains shown) VH: ELTLQESGPGLVKPSQTLSLTCGVSGGSVTRSHYWNWVRQRPGRGLEWMGYWTGSTNYNPAFQGRISITADTAKNQFSLQLRSMTTEDTAVYFCARETTIPTFFFDYWGQGTLVTVSS VL: SYVLTQLPSKNVTLKQPAHITCGGDNIGSKSVHWYQQKLGQAPVLIIYYDSSRPTGIPERFSGANSGNTATLTISGALAEDEADYYCQVWDSGAKAWVFGEGTQLTVL: NO
